Target: CDK2-cyclin A Wild-type (Homo sapiens, UniProt P24941)
Test: ITC binding of OTS964 to CDK2-cyclin A wild-type
Settings: KD, ITC, CDK2 in the presence of cyclin A; mean ± SD
experimental.endpoint: pKd
Please report pKd as the negative decimal logarithm of the molar concentration, giving only the number.

Query: Reported pKd, compound Cc1cc(O)c(-c2ccc(C(C)CN(C)C)cc2)c2c1[nH]c(=O)c1sccc12 (stereo not shown) : ____
Response: 5.74

---

Molecular target: CDK11 Met160Phe (M160F) (Homo sapiens, UniProt P21127, M516F)
Sequence (P21127 428-736 M516F): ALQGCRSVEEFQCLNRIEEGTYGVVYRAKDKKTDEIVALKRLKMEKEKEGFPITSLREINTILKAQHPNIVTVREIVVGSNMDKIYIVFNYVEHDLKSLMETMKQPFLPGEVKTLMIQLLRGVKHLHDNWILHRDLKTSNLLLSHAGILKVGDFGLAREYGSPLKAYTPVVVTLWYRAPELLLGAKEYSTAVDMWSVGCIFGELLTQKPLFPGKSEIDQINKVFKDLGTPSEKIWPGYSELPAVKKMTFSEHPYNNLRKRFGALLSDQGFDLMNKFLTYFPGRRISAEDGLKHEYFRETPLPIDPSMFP
Test: ITC binding of OTS964 to CDK11 Met160Phe
experimental.endpoint: Kd

Query: Reported Kd, molecule Cc1cc(O)c(-c2ccc(C(C)CN(C)C)cc2)c2c1[nH]c(=O)c1sccc12 (stereo not shown) : ____
Response: 556 nM
